The measured values listed here are drawn from PubChem BioAssay (NCI).

- System: UACC-257 melanoma
- EXPERIMENT_DESCRIPTION: NCI-60 one-dose screen, 48 h
- RUN_CONDITIONS: 10 µM unless noted
Compounds without any hit were thinned out: in the full panel of roughly 83,000, 20% have a hit. Calls of active or inactive are those of the source. Rule for the calls: active = growth percent below 10; inactive = the rest.
// one of label 1 for active, label 0 for inactive, no free text

Check out these entries, answers already filled in.
O=C(Nc1cccc(-n2ccc3c(NC(=O)c4ccccc4)ncnc32)c1)Nc1ccc(Cl)c(C(F)(F)F)c1    label 0
Cc1cccc(NCS(=O)(=O)O)c1    label 0
NC(=S)NNC1CCCCC1    label 0

Answer briefly: the call reported for `COc1ccc(-c2c(NC(=O)Nc3ccc(Cl)c(C(F)(F)F)c3)cnn2-c2ccc(S(N)(=O)=O)cc2)cc1` in this assay.
label 0

Answer briefly: the call reported for `CCCCCC/C=N/Nc1ccc([N+](=O)[O-])cn1` in this assay.
label 0

Answer briefly: the call reported for `Nc1nccc2c1ccn2-c1cccc(NC(=O)c2ccc(N3CCOCC3)c(C(F)(F)F)c2)c1` in this assay.
label 0

Answer briefly: the call reported for `c1cncc(-c2nc3ccccc3[nH]2)c1` in this assay.
label 0

Answer briefly: the call reported for `O=C(O)c1ccc(-n2cc(/C=N/Nc3ccccc3F)c(-c3ccc(O)cc3)n2)cc1` in this assay.
label 0

Answer briefly: the call reported for `COc1ccc(-c2nnc(SCC(=O)Nc3ccc(C(=O)/C=C/c4ccc(OC)c(OC)c4)cc3)o2)cc1` in this assay.
label 0

Answer briefly: the call reported for `CCc1c(C)c2cc3c(c(C)c2oc1=O)OCC(=O)N3` in this assay.
label 0

Answer briefly: the call reported for `C#C[C@@]1(O)[C@@H](CO)O[C@@H](n2cc(Br)c3c(Cl)ccnc32)[C@@H]1O` in this assay.
label 0

Answer briefly: the call reported for `CN(CCNCc1ccccn1)CCNCc1ccccn1` in this assay.
label 1

Answer briefly: the call reported for `COc1ccccc1NC(=O)COc1ccc(/C=C2/Oc3cc4occc4c(OC)c3C2=O)cc1OC` in this assay.
label 0

Answer briefly: the call reported for `Cc1cc(NC(=O)c2cccc(C(F)(F)F)c2)ccc1-n1ccc2c(NC(=O)c3ccccc3)nccc21` in this assay.
label 0

Answer briefly: the call reported for CN1CCN(CC(O)COc2c(Br)c(Br)c(Br)c3c2OC(C)(C)C3)CC1 (stereo not given) in this assay.
label 0

Answer briefly: the call reported for `Nc1nccc2c1ccn2-c1ccc(NC(=O)c2ccc(N3CCOCC3)c(C(F)(F)F)c2)cc1` in this assay.
label 0

Answer briefly: the call reported for `COc1cc2c(cc1OCCCCC(=O)Nc1ccc(-c3nc4ccccc4s3)cc1)N=C[C@@H]1CCCN1C2=O` in this assay.
label 1

Answer briefly: the call reported for `CC(C)[C@@H]1NC(=O)[C@]2(C)CSC(=N2)c2ccnc(c2)CNC(=O)C[C@@H](/C=C/CCS)OC1=O` in this assay.
label 1

Answer briefly: the call reported for `Nc1ncnc2c1c(-c1ccc(Oc3ccccc3)cc1)nn2C[C@H]1SSC[C@@H]1O` in this assay.
label 1

Answer briefly: the call reported for `Nc1nc(Cl)cc(NCCCCNc2cc(Cl)nc(N)n2)n1` in this assay.
label 0

Answer briefly: the call reported for `C/C(=N/NC(=O)Cn1c2ccccc2c2ccncc21)c1cccs1` in this assay.
label 0

====

- Tested on: HCT-116 colon
- EXPERIMENT_DESCRIPTION: NCI-60 one-dose screen, 48 h
- RUN_CONDITIONS: 10 µM unless noted
- Description: Growth inhibition of the HCT-116 human tumor cell line is measured as a screen for anti-cancer activity. Cells are grown in 96 well plates and exposed to the test compound for 48 hours. Compounds are tested at a single concentration, which is 10^-5 M for most compounds. The reported endpoint is percent growth (GI% or GIPRCNT), where numbers from 0 - 100% represent growth inhibition, and numbers from -100% - 0 represent cell death. For example, a value of 40 represents 60% growth inhibition. […]
This is part of a sample that, as a whole, favours compounds with a hit. Of some 83,000 tested, about 20% had one in any assay. The source made the active and inactive calls. Rule for the calls: active = growth percent below 10; inactive = the rest.
// one of active, inactive, no free text

Check out these entries, answers already filled in.
COc1ccc(-c2cc3ccc(N(C)C)cc3nc2N)c(F)c1    inactive
CCCCOc1c(N)cccc1C(=O)OCCN(CC)CC    inactive
COc1ccc(-c2[nH]c3ccccc3c2/C=C(\C#N)S(=O)(=O)c2ccccc2)cc1    inactive

Shift focus to the following entry.
Answer briefly: the call reported for Cc1cn(C2CC(N=[N+]=[N-])C(COP(=O)(O)OP(=O)(O)OP(=O)(O)O)O2)c(=O)[nH]c1=O (stereo unspecified) in this assay.
inactive

====

- Test system: SK-MEL-2 melanoma
- EXPERIMENT_DESCRIPTION: NCI-60 one-dose screen, 48 h
- RUN_CONDITIONS: 10 µM unless noted
About 83,000 compounds went through this panel and 20% of them were active in at least one assay; those are over-represented in the sample as a whole. Active and inactive are the calls of the source. How the source made its calls: active means growth percent below 10; inactive means the rest.
// one of active, inactive, no free text

Answer briefly: the call reported for `COc1ccc(-c2nnc(SCC(=O)N3CCN(c4cc5c(cc4F)c(=O)c(C(=O)O)cn5C4CC4)CC3)o2)cc1OC` in this assay.
inactive

Answer briefly: the call reported for CC(C)(C)NC(C1=CC(C)(C)c2ccccc2C1=O)c1ccccc1 (centres undefined) in this assay.
active

Answer briefly: the call reported for `Cc1ccc(N(CC2=NCCN2)c2cccc(O)c2)cc1` in this assay.
inactive

Answer briefly: the call reported for `COC(=O)c1oc2c(C(C)=O)c(OCCN3CCCCC3)ccc2c1C` in this assay.
inactive

Answer briefly: the call reported for C=C(C)[C@@H]1C/C=C(\COC(=O)[C@H](OC(C)=O)C(NC(=O)c2ccccc2)c2ccccc2)CC[C@H]2O[C@]2(C)CC/C=C(\C)CC1 (some centres undefined) in this assay.
inactive

Answer briefly: the call reported for `CCn1c(SCC(=O)c2ccc(Br)cc2)nnc1-c1cc2c([nH]c3ccccc32)c(-c2cccc(O)c2)n1` in this assay.
inactive

Answer briefly: the call reported for `COc1cccc(-c2nc3sccn3c2-c2ccnc(NCCNC(=O)c3ccccc3)n2)c1` in this assay.
inactive

Answer briefly: the call reported for `CC(=O)Nc1ccc(OC(=O)c2ccccc2O)cc1` in this assay.
inactive

Answer briefly: the call reported for `O=C(NCCNc1nccc(-c2c(-c3cccc(O)c3)nc3sccn23)n1)c1ccccc1O` in this assay.
inactive

====

- Test system: T-47D breast
- EXPERIMENT_DESCRIPTION: NCI-60 one-dose screen, 48 h (100 = growth as untreated, 0 = no growth, -100 = all killed)
- RUN_CONDITIONS: 10 µM unless noted
This is part of a sample that, as a whole, favours compounds with a hit. Of some 83,000 tested, about 20% had one in any assay.
So I've got a bunch of molecules here, and I need their growth values.
One number for each entry, in %.

C=C1c2c(Cl)ccc(O)c2C(O)=C2C(=O)[C@]3(O)C(O)=C(C(N)=O)C(=O)[C@@H](N(C)C)[C@@H]3[C@@H](O)[C@H]12    21.8

Go through the items and report each one's growth.
1. Cc1ccc[n+](CC(=O)c2cccc3ccccc23)c1
2. COc1cc(/C=C2/Oc3cc4occc4c(OC)c3C2=O)ccc1OCC(=O)Nc1ccncc1
3. COc1cc(NS(C)(=O)=O)ccc1Cc1c2ccccc2nc2ccccc12
4. CCCCCn1ncc(-c2c(O)c(O)cc3c(O)c(-c4c(C)cc5c(-c6cnn(CCCCC)n6)c(O)c(O)cc5c4O)c(C)cc23)n1
5. O=S(=O)(CCN1CCOCC1)Nc1cc(-c2ccc3ncnc(Nc4ccc(F)c(Cl)c4)c3c2)cnc1Cl

1: 91.9; 2: 108; 3: 33.5; 4: -5.48; 5: -32.6

Go through the items and report each one's growth.
1. Cc1nc(N)nc(SCc2ccccc2)c1Br
2. O=C(Nc1ccc(-n2ccc3c(NC(=O)c4ccccc4)ncnc32)cc1)Nc1ccc(Cl)c(C(F)(F)F)c1
3. c1ccc(-c2nc3sc(C(c4ccccc4)c4ccccc4)nn3c2-c2ccccc2)cc1
4. COc1cc(NC(=O)c2cc(OC)c3ccn(C)c3c2)cc2c1C[C@]1(C)CC[C@@H](O)C(C)(C)[C@H]1O2
5. O=C1OC(c2ccc(-c3ccccc3)cc2)=C/C1=C/C=C/c1ccccc1
6. NC(=NCCCOc1ccc(F)cc1)Nc1ccc(Cl)c(Cl)c1
7. O=C1c2ccccc2OC=C(c2ccccc2)N1CCCCNc1ccc(F)cc1

1: 65.2; 2: 12; 3: 92.6; 4: 57.5; 5: 101; 6: 29.2; 7: 36.3

Go through the items and report each one's growth.
1. CCCCN(CCCC)c1ccc(C(=N)c2ccc(N(C)C)cc2)cc1
2. COc1cccc(-c2nc3sccn3c2-c2ccnc(NCCNC(=O)Nc3cccc(C(F)(F)F)c3)n2)c1
3. COc1cc(Br)c(-c2nc(-c3ccccc3)c(-c3ccccc3)n2Cc2ccccc2)cc1OC

1: -23.3; 2: 42.9; 3: 35.8
